# TEST NAME: self-splicing fitness, log relative to wild type (ln ratio); higher = more splicing; Tetrahymena group I intron in knt gene, E. coli kanamycin selection, DiMSum; sequences stand for … in CUCUCU…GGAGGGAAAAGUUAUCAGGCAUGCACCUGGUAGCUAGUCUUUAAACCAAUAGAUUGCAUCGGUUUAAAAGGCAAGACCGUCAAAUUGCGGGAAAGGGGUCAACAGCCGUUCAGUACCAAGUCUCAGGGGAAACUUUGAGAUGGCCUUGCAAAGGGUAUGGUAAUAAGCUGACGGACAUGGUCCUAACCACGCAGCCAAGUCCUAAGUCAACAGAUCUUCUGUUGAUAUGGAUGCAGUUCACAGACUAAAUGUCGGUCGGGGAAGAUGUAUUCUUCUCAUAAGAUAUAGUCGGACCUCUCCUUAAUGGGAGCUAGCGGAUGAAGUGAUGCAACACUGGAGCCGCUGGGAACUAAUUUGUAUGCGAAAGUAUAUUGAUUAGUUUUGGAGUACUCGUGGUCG;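 note: selection with 25 µg/mL kanamycin versus none on LB agar overnight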
# CONDITION DESCRIPTION: 37 °C
Class membership depends on self-splicing fitness (ln) alone; the intervals are class 0 (below -1), class 1 (-1 to below -0.1), class 2 (-0.1 or more)

Which self-splicing fitness (ln) category applies to "UUAGAGCAAUAUUACGACUG" here?
class 2

Any idea which band "UGUCAGCAAUAUUACGGCGU" is in?
class 1

Band assignment needed for "ACGGAGCAAUAUUACGCACG" please.
class 0

Exam item: assign "UGCUAGCAAUAUUACGUCCG" to the correct category.
class 2

Others:
Which bin should I file "GUUAAGCAAUAUUACGUUCG" under?
class 1

Please classify: "UCGCAGCAAUAUUACGAGGC"
class 0

// bin(item) where item = "UGUUAGCAAUAUUACGUCAU"
class 0

Assign a category based on measured self-splicing fitness (ln) for "GAUAAGCAAUAUUACGGCAC" and give only the class name.
class 1

###

# TEST NAME: self-splicing fitness, log relative to wild type (ln ratio); higher = more splicing; Tetrahymena group I intron in knt gene, E. coli kanamycin selection, DiMSum; sequences stand for … in CUCUCU…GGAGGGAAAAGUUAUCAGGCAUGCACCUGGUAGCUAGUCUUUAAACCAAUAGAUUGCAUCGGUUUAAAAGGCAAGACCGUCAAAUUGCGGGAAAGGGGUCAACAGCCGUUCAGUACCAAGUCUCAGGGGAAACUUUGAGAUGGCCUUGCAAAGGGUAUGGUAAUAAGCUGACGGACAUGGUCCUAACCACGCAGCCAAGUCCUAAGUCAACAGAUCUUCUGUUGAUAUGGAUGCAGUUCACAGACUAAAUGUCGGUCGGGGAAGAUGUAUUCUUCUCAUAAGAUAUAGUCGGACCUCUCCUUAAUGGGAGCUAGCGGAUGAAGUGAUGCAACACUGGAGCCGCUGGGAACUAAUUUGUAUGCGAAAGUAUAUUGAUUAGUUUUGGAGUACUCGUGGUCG
# CONDITION DESCRIPTION: 37 °C
MEASURED QUANTITY: self-splicing fitness (ln)
Answers are plain numbers.

Reference set (3 entries):
Report self-splicing fitness (ln) for "AUGCAGCAAUAUUACGCGUC" please.
-3.05

Item under review: "GUAUAGCAAUAUUACGCUAU" . Reported self-splicing fitness (ln)?
-1.23

May I ask what self-splicing fitness (ln) has been recorded for "UCCAAGCAAUAUUACGAAGA" ?
-0.326

Lab note: each sequence below needs its self-splicing fitness (ln) filled in.
1. AGUCAGCAAUAUUACGAUCC
2. UCUAAGCAAUAUUACGCAGU
3. AAUCAGCAAUAUUACGUGGG
4. GAGGAGCAAUAUUACGAGCA
5. UCAAAGCAAUAUUACGCGUC
6. ACUGAGCAAUAUUACGGUGG
7. UACUAGCAAUAUUACGCCCU

1: 0.198; 2: -1.24; 3: -1.09; 4: -2.4; 5: -2.89; 6: -2.37; 7: -0.784

# batch size: 2; output self-splicing fitness (ln) per entry
1. CCAGAGCAAUAUUACGGUAC
2. AUAUAGCAAUAUUACGCGCC

1. -1.52
2. -1.35

###

# TEST NAME: self-splicing fitness, log relative to wild type (ln ratio); higher = more splicing; Tetrahymena group I intron in knt gene, E. coli kanamycin selection, DiMSum; sequences stand for … in CUCUCU…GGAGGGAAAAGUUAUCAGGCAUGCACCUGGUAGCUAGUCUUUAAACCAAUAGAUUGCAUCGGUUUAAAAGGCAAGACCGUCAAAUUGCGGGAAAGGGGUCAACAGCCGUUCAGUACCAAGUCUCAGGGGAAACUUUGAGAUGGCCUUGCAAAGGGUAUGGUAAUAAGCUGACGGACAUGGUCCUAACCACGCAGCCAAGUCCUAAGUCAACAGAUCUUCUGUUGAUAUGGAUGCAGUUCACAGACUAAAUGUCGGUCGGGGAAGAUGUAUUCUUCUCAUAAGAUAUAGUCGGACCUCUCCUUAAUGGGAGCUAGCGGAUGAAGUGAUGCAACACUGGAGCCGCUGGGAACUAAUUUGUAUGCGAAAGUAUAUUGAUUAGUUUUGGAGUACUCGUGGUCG
# CONDITION DESCRIPTION: 30 °C
For each record, write down the corresponding self-splicing fitness (ln).
Numbers only.

Look over these answered cases.
Given the entry "AAAAAGCAAUAUUACGGUUC" , report its measured self-splicing fitness (ln).
-2.7

Could you share which self-splicing fitness (ln) value was measured for "CAAUAGCAAUAUUACGGAGC" ?
-2.48

Which self-splicing fitness (ln) is reported for this sequence? "GCUAAGCAAUAUUACGUGGG"
-2.99

Each of the following entries comes with a recorded value; kindly state self-splicing fitness (ln) for each.
1. UACUAGCAAUAUUACGACAU
2. CAGAAGCAAUAUUACGCUGU

-1.64
-4.53

###

# TEST NAME: self-splicing fitness, log relative to wild type (ln ratio); higher = more splicing; Tetrahymena group I intron in knt gene, E. coli kanamycin selection, DiMSum; sequences stand for … in CUCUCU…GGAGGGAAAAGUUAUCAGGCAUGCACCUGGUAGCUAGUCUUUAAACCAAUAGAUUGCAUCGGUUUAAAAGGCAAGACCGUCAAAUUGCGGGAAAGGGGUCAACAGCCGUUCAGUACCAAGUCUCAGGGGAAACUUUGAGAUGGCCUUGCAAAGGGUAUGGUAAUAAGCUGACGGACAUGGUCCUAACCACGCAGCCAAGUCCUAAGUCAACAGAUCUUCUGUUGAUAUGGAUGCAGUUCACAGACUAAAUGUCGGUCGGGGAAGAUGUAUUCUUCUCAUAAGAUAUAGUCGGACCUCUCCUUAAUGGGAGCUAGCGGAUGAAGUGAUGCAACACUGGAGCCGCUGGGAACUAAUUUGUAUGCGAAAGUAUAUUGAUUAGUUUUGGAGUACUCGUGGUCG
# CONDITION DESCRIPTION: 30 °C
MEASURED QUANTITY: self-splicing fitness (ln)
Answers are plain numbers.

Count: 5. Required value per item: self-splicing fitness (ln).
1. CCCGAGCAAUAUUACGCUUC
2. UAGAAGCAAUAUUACGGUUG
3. UCGAAGCAAUAUUACGAGUC
4. ACAGAGCAAUAUUACGUGCA
5. UUCCAGCAAUAUUACGUUAA

[-3.7, -1.79, -3.45, -3.73, -1.16]

###

# TEST NAME: self-splicing fitness, log relative to wild type (ln ratio); higher = more splicing; Tetrahymena group I intron in knt gene, E. coli kanamycin selection, DiMSum; sequences stand for … in CUCUCU…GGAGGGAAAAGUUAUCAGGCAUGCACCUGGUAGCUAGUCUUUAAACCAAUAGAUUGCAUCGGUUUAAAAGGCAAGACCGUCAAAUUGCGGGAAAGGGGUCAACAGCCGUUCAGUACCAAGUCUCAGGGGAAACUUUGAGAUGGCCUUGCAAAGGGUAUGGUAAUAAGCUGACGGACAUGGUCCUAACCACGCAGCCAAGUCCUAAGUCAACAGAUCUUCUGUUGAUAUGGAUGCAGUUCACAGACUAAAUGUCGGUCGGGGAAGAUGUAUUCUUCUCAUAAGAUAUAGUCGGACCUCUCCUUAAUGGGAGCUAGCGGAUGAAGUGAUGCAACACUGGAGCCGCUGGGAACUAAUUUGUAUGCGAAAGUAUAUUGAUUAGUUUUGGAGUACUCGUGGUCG
# CONDITION DESCRIPTION: 37 °C
The recorded self-splicing fitness (ln) of each item maps onto one of these classes: lower band = under -2, central band = from -2 up to -1, upper band = -1 and over

Note: place this sequence into its band. Item: "CCCGAGCAAUAUUACGCUUC"
lower band

Which class is correct for the following sequence? "GUCCAGCAAUAUUACGUAUC"
upper band

// bin(item) where item = "GUACAGCAAUAUUACGGACA"
central band

Class label required: "CGGAAGCAAUAUUACGAUCA"
upper band

Which category fits this record: "UCAAAGCAAUAUUACGUCUC"
central band

Category of "UCACAGCAAUAUUACGAAAA" :
central band

Which class holds "CCAAAGCAAUAUUACGCUCC" ?
central band

Place this sequence in its band: "CUAUAGCAAUAUUACGCAUU"
lower band

Attention now shifts to the item below.
Category of "AGCGAGCAAUAUUACGGGUC" , please.
lower band
